# Study Target: T1, Escherichia coli polynucleotide phosphorylase core (PNPase ΔKHΔS1, lacking the C-terminal S1 and KH domains) (E. coli, UniProt P05055 1-549)
# T1 construct: Expression vector from George Mackie; No tag is mentioned; also called PNPase core; PNPase ΔKΔH1; source: E. coli BL21 (DE3), auto-induction, purified (ammonium sulphate, Q-Sepharose, mono-Q)
# T1 sequence: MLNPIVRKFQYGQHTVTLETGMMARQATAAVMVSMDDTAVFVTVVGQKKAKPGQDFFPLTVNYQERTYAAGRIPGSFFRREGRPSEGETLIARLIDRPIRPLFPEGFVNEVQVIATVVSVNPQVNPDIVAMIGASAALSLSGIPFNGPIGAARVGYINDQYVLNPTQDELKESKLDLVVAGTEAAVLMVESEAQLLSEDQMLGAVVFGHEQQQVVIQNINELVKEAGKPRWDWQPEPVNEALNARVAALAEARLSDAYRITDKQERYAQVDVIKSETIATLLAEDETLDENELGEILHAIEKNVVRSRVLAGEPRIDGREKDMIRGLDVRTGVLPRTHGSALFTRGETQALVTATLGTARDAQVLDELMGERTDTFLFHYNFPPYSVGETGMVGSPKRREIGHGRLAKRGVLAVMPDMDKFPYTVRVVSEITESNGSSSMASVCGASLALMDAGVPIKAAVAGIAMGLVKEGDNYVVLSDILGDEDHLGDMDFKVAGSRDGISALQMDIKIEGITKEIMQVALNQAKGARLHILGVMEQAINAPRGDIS
# Method Notes: ITC; MicroCal VP-ITC, 25 °C; 200 uM PNPase core injected into 10 uM RNase E micro-domain in the cell; 10 mM Tris pH 7.5, 150 mM NaCl, 1 mM MgCl2; single binding-site model
# Details: both partners purified
Reported Property: Kd

Query Kd for EAPRHSDWQRPTFAFEGKGAAGGHTATHHASAAPARPQPVE (peptide, UniProt P21513 1021-1061, looked up, also called RNase E micro-domain; source: synthetic peptide (Clonestar Biotech Ltd), desalted on PD10) [RNase E recognition micro-domain (residues 1021-1061)] ~900 nM

FYI, the data here is from paper PMC2723993.
